Data origin: patent US10494364B2

PROTOCOL_SUMMARY: Pharmacokinetic test in SD rats (iv and oral gavage), plasma by LC/MS/MS
Format: in vivo
CONDITION: rat, male SD rats, iv 1 mg/kg
MEASURED_ATTRIBUTE: Tmax (min)
Numbers only, in min.

Examples from the recorded data:
STRUCTURE | RESULT_UNITS | Tmax
N#CC1(NC(=O)C2(NC(=O)c3cc4ccc(-c5ccc(-n6ccnn6)cc5)cc4o3)CCC(F)(F)CC2)CC1 | min | 4.98
N#CC1(NC(=O)C2(NC(=O)c3cc4ccc(-c5ccc(-n6cncn6)c(OC(F)F)c5)cc4o3)CCC(F)(F)CC2)CC1 | min | 4.98
Cc1cc(-c2ccc3cc(C(=O)NC4(C(=O)NC5(C#N)CC5)CCC(F)(F)CC4)oc3c2)ccc1-n1cncn1 | min | 46.8
N#CC1(NC(=O)C2(NC(=O)c3cc4ccc(-c5ccc(-n6cncn6)cc5)cc4o3)CCC(F)(F)CC2)CC1 | min | 4.8

Name the reported Tmax value associated with the compound CCOc1cc(-c2ccc3cc(C(=O)NC4(C(=O)NC5(C#N)CC5)CCC(F)(F)CC4)oc3c2)ccc1-n1cncn1 19.8

====

Assay system human cathepsin B (Homo sapiens); read-out recorded as IC50.
Answers are plain numbers, in nM.

Examples from the recorded data:
MOLECULE | STUDY_SYSTEM | IC50 / nM
N#CC1(NC(=O)C2(NC(=O)c3cc4ccc(-c5ccc(C6(F)COC6)cc5)cc4o3)CCCCC2)CC1 | human cathepsin B (Homo sapiens) | 1120
N#CC1(NC(=O)C2(NC(=O)c3cc4ccc(-c5ccc(C(O)CO)cc5)cc4o3)CCC(F)(F)CC2)CC1 (stereo not drawn) | human cathepsin B (Homo sapiens) | 750
N#CC1(NC(=O)C2(NC(=O)c3cc4ccc(-c5ccc(-n6cncn6)cc5)cc4o3)CCCCCC2)CC1 | human cathepsin B (Homo sapiens) | 423
N#CC1(NC(=O)C2(NC(=O)c3cc4ccc(-c5ccc(-n6cn[nH]c6=O)cc5)cc4o3)CCC(F)(F)CC2)CC1 | human cathepsin B (Homo sapiens) | 2200
N#CC1(NC(=O)C2(NC(=O)c3cc4ccc(-c5ccc(-n6ccnn6)cc5)cc4o3)CCC(F)(F)CC2)CC1 | human cathepsin B (Homo sapiens) | 806
N#CC1(NC(=O)C2(NC(=O)c3cc4ccc(-c5csc(N6CCS(=O)(=O)CC6)n5)cc4o3)CCCCC2)CC1 | human cathepsin B (Homo sapiens) | 540
CS(=O)(=O)c1nc(-c2ccc3cc(C(=O)NC4(C(=O)NC5(C#N)CC5)CCCCC4)oc3c2)cs1 | human cathepsin B (Homo sapiens) | 540
COc1cc(-c2ccc3cc(C(=O)NC4(C(=O)NC5(C#N)CC5)CCC(F)(F)CC4)oc3c2)ccc1S(C)(=O)=O | human cathepsin B (Homo sapiens) | 355
N#CC1(NC(=O)C2(NC(=O)c3cc4ccc(-c5ccc(C(O)C6(O)CC6)cc5)cc4o3)CCC(F)(F)CC2)CC1 (stereo not drawn) | human cathepsin B (Homo sapiens) | 750
N#CC1(NC(=O)C2(NC(=O)c3cc4ccc(-c5ccc(C6(O)CCS(=O)(=O)CC6)cc5)cc4o3)CCC(F)(F)CC2)CC1 | human cathepsin B (Homo sapiens) | 2100

Quick request: IC50 for each listed item, please.
1. N#CC1(NC(=O)C2(NC(=O)c3cc4ccc(-c5ccc(C6(O)CCOCC6)cc5)cc4o3)CCC(F)(F)CC2)CC1
2. COc1cc(-c2ccc3cc(C(=O)NC4(C(=O)NC5(C#N)CC5)CCC(F)(F)CC4)oc3c2)ccc1-n1cncn1

3100
409

====

STUDY_SYSTEM: human cathepsin K (Homo sapiens, UniProt P43235)
Sequence (P43235 115-329): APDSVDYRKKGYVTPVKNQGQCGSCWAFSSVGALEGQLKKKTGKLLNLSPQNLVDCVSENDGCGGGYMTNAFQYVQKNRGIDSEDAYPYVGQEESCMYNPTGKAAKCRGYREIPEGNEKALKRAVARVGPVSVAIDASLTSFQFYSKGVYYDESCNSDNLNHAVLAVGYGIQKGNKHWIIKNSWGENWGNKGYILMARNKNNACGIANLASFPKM
Would you mind telling me the reported pIC50 of each entry?
One number for each entry, as −log10 of the molar value.

Examples from the recorded data:
MOLECULE | STUDY_SYSTEM | pIC50
COc1cc(-c2ccc3cc(C(=O)NC4(C(=O)NC5(C#N)CC5)CCC(F)(F)CC4)oc3c2)ccc1S(C)(=O)=O | human cathepsin K (Homo sapiens, UniProt P43235) | 8.86
COC1(c2ccc(-c3ccc4cc(C(=O)NC5(C(=O)NC6(C#N)CC6)CCCCC5)oc4c3)cc2)COC1 | human cathepsin K (Homo sapiens, UniProt P43235) | 8.68

Quick request: pIC50 for each listed item, please.
1. COc1cc(-c2ccc3cc(C(=O)NC4(C(=O)NC5(C#N)CC5)CCC(F)(F)CC4)oc3c2)ccc1-n1cncn1
2. N#CC1(NC(=O)C2(NC(=O)c3cc4ccc(-c5ccc(N6CCNC6=O)cc5)cc4o3)CCC(F)(F)CC2)CC1

1: 9.51; 2: 8.27

Quick request: pIC50 for each listed item, please.
1. N#CC1(NC(=O)C2(NC(=O)c3cc4ccc(-c5ccc(-n6ccnn6)cc5)cc4o3)CCC(F)(F)CC2)CC1
2. N#CC1(NC(=O)C2(NC(=O)c3cc4ccc(-c5csc(N6CCS(=O)(=O)CC6)n5)cc4o3)CCCCC2)CC1
3. N#CC1(NC(=O)C2(NC(=O)c3cc4ccc(-c5ccc(C6(F)COC6)cc5)cc4o3)CCCCC2)CC1
4. COc1cc(-c2ccc3cc(C(=O)NC4(C(=O)NC5(C#N)CC5)CCC(F)(F)CC4)oc3c2)ccc1C(=O)N1CCOCC1
5. CS(=O)(=O)COc1ccc(-c2ccc3cc(C(=O)NC4(C(=O)NC5(C#N)CC5)CCC(F)(F)CC4)oc3c2)cc1
6. COc1cc(-c2ccc3cc(C(=O)NC4(C(=O)NC5(C#N)CC5)CCC(F)(F)CC4)oc3c2)ccc1CS(C)(=O)=O
7. N#CC1(NC(=O)C2(NC(=O)c3cc4ccc(-c5ccc6ncoc6c5)cc4o3)CCC(F)(F)CC2)CC1

8.66
9.19
8.52
9.02
8.99
9.25
8.72

Quick request: pIC50 for each listed item, please.
1. N#CC1(NC(=O)C2(NC(=O)c3cc4ccc(-c5ccc(C6(O)CCOCC6)cc5)cc4o3)CCCCC2)CC1
2. CS(=O)(=O)c1ccc(-c2ccc3cc(C(=O)NC4(C(=O)NC5(C#N)CC5)CCCCC4)oc3c2)cc1
3. CS(=O)(=O)c1nc(-c2ccc3cc(C(=O)NC4(C(=O)NC5(C#N)CC5)CCCCC4)oc3c2)cs1
4. N#CC1(NC(=O)C2(NC(=O)c3cc4ccc(-c5ccc(C6(O)CCS(=O)(=O)CC6)cc5)cc4o3)CCCCC2)CC1
5. CS(=O)(=O)c1ccc(-c2ccc3cc(C(=O)NC4(C(=O)NC5(C#N)CC5)CCC(F)(F)CC4)oc3c2)cc1
6. CS(=O)(=O)c1ccc(-c2ccc3cc(C(=O)NC4(C(=O)NC5(C#N)CC5)CCCCC4)oc3c2)c(F)c1
7. CS(=O)(=O)c1ccc(-c2ccc3cc(C(=O)NC4(C(=O)NC5(C#N)CC5)CCCC4)oc3c2)cc1
8. N#CC1(NC(=O)C2(NC(=O)c3cc4ccc(-c5csc(N6CCNC6=O)n5)cc4o3)CCCCC2)CC1

[8.74, 8.86, 9.09, 9.26, 8.86, 8.96, 8.07, 8.89]

====

PROTOCOL_SUMMARY: Pharmacokinetic test in SD rats (iv and oral gavage), plasma by LC/MS/MS
Type: in vivo
CONDITION: rat, male SD rats, iv 1 mg/kg
Would you mind telling me the reported clearance of each entry?
One number for each entry, in mL/min/kg.

Examples from the recorded data:
STRUCTURE | NUMERIC_VALUE
N#CC1(NC(=O)C2(NC(=O)c3cc4ccc(-c5ccc(-n6cncn6)cc5)cc4o3)CCC(F)(F)CC2)CC1 | 1.8
N#CC1(NC(=O)C2(NC(=O)c3cc4ccc(-c5ccc(-n6ccnn6)cc5)cc4o3)CCC(F)(F)CC2)CC1 | 5.14
Cc1cc(-c2ccc3cc(C(=O)NC4(C(=O)NC5(C#N)CC5)CCC(F)(F)CC4)oc3c2)ccc1-n1cncn1 | 4.13
N#CC1(NC(=O)C2(NC(=O)c3cc4ccc(-c5ccc(-n6cncn6)c(OC(F)F)c5)cc4o3)CCC(F)(F)CC2)CC1 | 2.91

We now examine a further compound.
Name the reported clearance value associated with the compound CCOc1cc(-c2ccc3cc(C(=O)NC4(C(=O)NC5(C#N)CC5)CCC(F)(F)CC4)oc3c2)ccc1-n1cncn1 1.73

====

STUDY_SYSTEM: human cathepsin B (Homo sapiens, UniProt P07858)
MEASURED_ATTRIBUTE: IC50 (nM)
Numbers only, in nM.

Examples from the recorded data:
STRUCTURE | STUDY_SYSTEM | IC50 [nM]
N#CC1(NC(=O)C2(NC(=O)c3cc4ccc(-c5csc(N6CCNC6=O)n5)cc4o3)CCCCC2)CC1 | human cathepsin B (Homo sapiens, UniProt P07858) | 697
N#CC1(NC(=O)C2(NC(=O)c3cc4ccc(-c5ccc(C6(N)COC6)cc5)cc4o3)CCCCC2)CC1 | human cathepsin B (Homo sapiens, UniProt P07858) | 22
N#CC1(NC(=O)C2(NC(=O)c3cc4ccc(-c5ccc(N6CCOCC6=O)cc5)cc4o3)CCC(F)(F)CC2)CC1 | human cathepsin B (Homo sapiens, UniProt P07858) | 2200

Name the reported IC50 value associated with the molecule N#CC1(NC(=O)C2(NC(=O)c3cc4ccc(-c5ccc(C6(O)COC6)cc5)cc4o3)CCCCC2)CC1 727
